Target entity: T1, UL130 expressed from MVA in BHK-21 cells (human cytomegalovirus, UniProt P16772 1-214)
T1 construct: whole, on cells
T1 sequence (P16772 26-214 limits assumed): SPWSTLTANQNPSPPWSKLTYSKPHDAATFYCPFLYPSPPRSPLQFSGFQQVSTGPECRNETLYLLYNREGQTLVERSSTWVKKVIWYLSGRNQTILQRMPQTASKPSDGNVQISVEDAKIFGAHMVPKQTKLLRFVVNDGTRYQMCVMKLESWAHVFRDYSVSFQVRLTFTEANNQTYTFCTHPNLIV
Experimental protocol: intracellular FC, MVA-infected BHK-21

{"Binder": "21E9 (antibody, V domains shown, also called NAb 21E9) VH: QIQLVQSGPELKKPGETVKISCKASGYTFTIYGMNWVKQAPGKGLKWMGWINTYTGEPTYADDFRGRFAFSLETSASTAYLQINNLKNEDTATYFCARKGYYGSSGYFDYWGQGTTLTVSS VL: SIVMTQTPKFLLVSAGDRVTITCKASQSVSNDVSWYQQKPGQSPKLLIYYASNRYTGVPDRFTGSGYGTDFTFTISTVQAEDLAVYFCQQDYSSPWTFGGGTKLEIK", "binding result": "no binding"}
{"Binder": "13B5 (antibody, V domains shown, also called NAb 13B5; 1365) VH: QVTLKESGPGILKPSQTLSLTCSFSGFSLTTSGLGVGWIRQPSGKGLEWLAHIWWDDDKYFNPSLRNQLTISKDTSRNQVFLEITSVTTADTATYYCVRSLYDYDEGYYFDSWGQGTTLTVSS VL: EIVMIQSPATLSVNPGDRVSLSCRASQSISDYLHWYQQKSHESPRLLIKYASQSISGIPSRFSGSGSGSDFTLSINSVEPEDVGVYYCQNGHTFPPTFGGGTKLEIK", "binding result": "no binding"}
